Target: the molecule itself
Experiment: SEC; isolated dimer diluted to 5 μM in standard buffer (20 mM HEPES, 150 mM NaCl, 2 mM β-mercaptoethanol) at pH 5.0, 37 °C, aliquots over 2 h on Superdex 75; dimer to monomers; Kd from the equilibrium dimer fraction, koff from a single exponential decay, kon derived from Kd = koff/kon

protein	Kd
forkhead domain of human FoxP1, wild type (domain or fragment) AEVRPPFTYASLIRQAILESPEKQLTLNEIYNWFTRMFAYFRRNAATWKNAVRHNLSLHKCFVRVENVKGAVWTVDEVEFQKRRPQK	31.2 µM
